Measured IC50 accompanies every entry in the list below.
Target: integrin α4β7, expressed on the RPMI 8866 (human B lymphoid cell line) cell membrane with MAdCAM-1 (Homo sapiens, UniProt P13612+P26010)
Construct: integrin α4β7, expressed on the RPMI 8866 (human B lymphoid cell line) cell membrane; endogenous in cells
Sequence (P13612 34-1032): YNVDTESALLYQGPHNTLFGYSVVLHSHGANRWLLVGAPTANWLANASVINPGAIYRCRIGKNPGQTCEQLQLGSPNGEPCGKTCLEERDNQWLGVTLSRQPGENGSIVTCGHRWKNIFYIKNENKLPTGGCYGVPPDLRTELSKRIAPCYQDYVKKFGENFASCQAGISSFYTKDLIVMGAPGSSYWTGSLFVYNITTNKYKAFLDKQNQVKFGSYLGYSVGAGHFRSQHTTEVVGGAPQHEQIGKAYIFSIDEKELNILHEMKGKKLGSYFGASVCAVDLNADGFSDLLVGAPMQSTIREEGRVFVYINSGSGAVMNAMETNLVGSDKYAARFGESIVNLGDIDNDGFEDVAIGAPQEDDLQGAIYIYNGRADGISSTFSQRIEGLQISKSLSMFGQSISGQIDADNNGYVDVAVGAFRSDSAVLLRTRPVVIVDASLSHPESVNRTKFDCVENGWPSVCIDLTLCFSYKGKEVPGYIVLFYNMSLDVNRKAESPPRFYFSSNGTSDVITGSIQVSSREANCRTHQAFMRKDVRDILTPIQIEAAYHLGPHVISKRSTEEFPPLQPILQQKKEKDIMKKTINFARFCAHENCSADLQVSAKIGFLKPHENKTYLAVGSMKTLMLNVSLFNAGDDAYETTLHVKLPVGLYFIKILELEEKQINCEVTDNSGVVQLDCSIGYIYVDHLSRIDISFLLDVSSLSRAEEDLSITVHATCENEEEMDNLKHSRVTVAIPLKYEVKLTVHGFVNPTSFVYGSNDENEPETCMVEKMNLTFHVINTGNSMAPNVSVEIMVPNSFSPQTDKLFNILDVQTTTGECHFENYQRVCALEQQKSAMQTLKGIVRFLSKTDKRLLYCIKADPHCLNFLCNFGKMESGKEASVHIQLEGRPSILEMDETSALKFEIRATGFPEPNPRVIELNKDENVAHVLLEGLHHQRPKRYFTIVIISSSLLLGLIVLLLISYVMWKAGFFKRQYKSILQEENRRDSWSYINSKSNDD
Sequence (P26010 20-798): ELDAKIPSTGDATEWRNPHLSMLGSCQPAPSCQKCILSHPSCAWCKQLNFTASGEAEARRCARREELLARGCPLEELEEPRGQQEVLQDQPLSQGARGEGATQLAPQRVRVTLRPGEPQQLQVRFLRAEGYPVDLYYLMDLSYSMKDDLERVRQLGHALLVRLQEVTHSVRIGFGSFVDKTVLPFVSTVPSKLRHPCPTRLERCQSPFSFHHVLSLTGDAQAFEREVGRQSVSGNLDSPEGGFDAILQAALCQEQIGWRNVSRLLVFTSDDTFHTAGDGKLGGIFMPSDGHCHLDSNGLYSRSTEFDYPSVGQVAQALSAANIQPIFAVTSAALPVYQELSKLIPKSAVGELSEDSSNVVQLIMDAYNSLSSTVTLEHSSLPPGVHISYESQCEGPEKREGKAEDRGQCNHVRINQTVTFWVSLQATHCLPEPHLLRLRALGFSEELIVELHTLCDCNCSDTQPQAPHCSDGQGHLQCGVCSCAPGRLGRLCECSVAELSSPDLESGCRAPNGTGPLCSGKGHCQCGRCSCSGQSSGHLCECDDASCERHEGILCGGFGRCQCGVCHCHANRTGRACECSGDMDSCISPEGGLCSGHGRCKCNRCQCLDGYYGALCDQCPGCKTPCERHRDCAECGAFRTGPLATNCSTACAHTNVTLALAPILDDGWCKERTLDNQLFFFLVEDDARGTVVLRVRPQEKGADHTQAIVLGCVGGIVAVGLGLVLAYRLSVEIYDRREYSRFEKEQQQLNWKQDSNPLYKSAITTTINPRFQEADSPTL
Assay: RPMI 8866/MAdCAM-1 adhesion assay
Settings: RPMI 8866 cell adhesion to MAdCAM-1, 1 mM MnCl2; mean of n experiments
Give the value, in units of nM, as a plain number.

CC(C)C[C@H](NC(=O)COc1ccccc1I)C(=O)N[C@@H](Cc1ccc(OC(=O)N2CCOCC2)cc1)C(=O)O ... 63.1
Cc1ccccc1OCC(=O)N[C@@H](CC(C)C)C(=O)N[C@@H](Cc1ccc(OC(=O)N2CCN(C(=O)c3ccccc3)CC2)cc1)C(=O)O ... 200
CC(=O)N1CCN(C(=O)Oc2ccc(C[C@H](NC(=O)[C@H](CC(C)C)NC(=O)COc3ccccc3C)C(=O)O)cc2)CC1 ... 158

[ask] I am curious: what IC50 value has been reported for "CC(C)C[C@H](NC(=O)COc1ccccc1C(C)(C)C)C(=O)N[C@@H](Cc1ccc(OC(=O)N2CCN(C(=O)c3ccccc3)CC2)cc1)C(=O)O" ?
[reply] 200

* * *

Measured log10 IC50 accompanies every entry in the list below.
Molecular target: integrin VLA-4, expressed on the Jurkat J6 (human lymphoblast cell line) cell membrane with VCAM-1 (Homo sapiens, UniProt P05556+P13612)
Construct: integrin VLA-4, expressed on the Jurkat J6 (human lymphoblast cell line) cell membrane; endogenous in cells
Sequence (P05556 21-798, one chain of several): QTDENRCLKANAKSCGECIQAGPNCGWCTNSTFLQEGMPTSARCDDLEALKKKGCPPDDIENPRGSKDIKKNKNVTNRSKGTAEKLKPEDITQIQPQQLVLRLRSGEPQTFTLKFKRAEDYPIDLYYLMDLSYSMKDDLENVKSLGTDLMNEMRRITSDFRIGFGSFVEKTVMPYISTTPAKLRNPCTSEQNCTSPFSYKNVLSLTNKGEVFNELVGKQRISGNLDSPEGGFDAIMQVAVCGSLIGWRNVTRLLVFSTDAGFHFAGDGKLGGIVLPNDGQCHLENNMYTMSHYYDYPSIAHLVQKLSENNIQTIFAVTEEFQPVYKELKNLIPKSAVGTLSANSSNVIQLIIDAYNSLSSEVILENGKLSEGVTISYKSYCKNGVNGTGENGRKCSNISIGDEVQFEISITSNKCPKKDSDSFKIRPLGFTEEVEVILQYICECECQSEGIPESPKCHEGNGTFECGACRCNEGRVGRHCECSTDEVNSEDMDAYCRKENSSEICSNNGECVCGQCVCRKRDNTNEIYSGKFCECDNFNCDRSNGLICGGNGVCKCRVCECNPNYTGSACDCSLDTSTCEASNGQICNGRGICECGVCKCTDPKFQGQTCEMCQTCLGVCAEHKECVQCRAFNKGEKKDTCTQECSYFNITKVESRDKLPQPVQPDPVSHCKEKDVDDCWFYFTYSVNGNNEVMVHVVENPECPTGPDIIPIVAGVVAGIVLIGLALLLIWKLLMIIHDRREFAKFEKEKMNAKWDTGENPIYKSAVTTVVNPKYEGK
Assay: Jurkat J6/VCAM-1 adhesion assay
Conditions: Jurkat J6 cell adhesion to VCAM-1, 1 mM MnCl2; mean of n experiments
Record value = log10 of IC50 given in nM.

Here are 2 compounds together with their reported answers.
CC(C)C[C@H](NC(=O)COc1ccccc1C1CCCCC1)C(=O)N[C@@H](Cc1ccc(OC(=O)N2CCOCC2)cc1)C(=O)O ... 1.35
CC(C)C[C@H](NC(=O)COc1ccccc1C1CCCCC1)C(=O)N[C@@H](Cc1ccc(OC(=O)N2CCC(NC(=O)Cc3ccc(Cl)cc3)CC2)cc1)C(=O)O ... 1.76

[ask] I am curious: what log10 IC50 value has been reported for "CC(C)C[C@H](NC(=O)COc1ccccc1C1CCCCC1)C(=O)N[C@@H](Cc1ccc(OC(=O)N2CCC(NC(=O)CC3CCCCC3)CC2)cc1)C(=O)O" ?
[reply] 1.94

[ask] I am curious: what log10 IC50 value has been reported for "Cc1ccccc1OCC(=O)N[C@@H](CC(C)C)C(=O)N[C@@H](Cc1ccc(OC(=O)N2CCC(NC(=O)Cc3ccccc3)CC2)cc1)C(=O)O" ?
[reply] 0.75

[ask] I am curious: what log10 IC50 value has been reported for "CC(C)C[C@H](NC(=O)COc1ccccc1I)C(=O)N[C@@H](Cc1ccc(OC(=O)N2CCC(NC(=O)C(C3CCCCC3)C3CCCCC3)CC2)cc1)C(=O)O" ?
[reply] 1.42

[ask] I am curious: what log10 IC50 value has been reported for "CC(=O)N1CCN(C(=O)Oc2ccc(C[C@H](NC(=O)[C@H](CC(C)C)NC(=O)c3cccc4c3oc3ccccc34)C(=O)O)cc2)CC1" ?
[reply] 0.57

* * *

Measured pIC50 accompanies every entry in the list below.
Molecular target: integrin VLA-4, expressed on the Jurkat J6 (human lymphoblast cell line) cell membrane with VCAM-1 (Homo sapiens, UniProt P05556+P13612)
Construct: integrin VLA-4, expressed on the Jurkat J6 (human lymphoblast cell line) cell membrane; endogenous in cells
Test: Jurkat J6/VCAM-1 adhesion assay
Conditions: Jurkat J6 cell adhesion to VCAM-1, 1 mM MnCl2; mean of n experiments
Starred links: 1 amine or outer side, 2 acyl side, 3 side chain; linkers in the order of their positions; H or OH if unused. Residues, ends and D or L forms follow the SMILES beside them. Groups on a side chain read outwards from the residue. *: point of attachment. Morpholide = C1CN(*)CCO1; Cbz = O=C(OCc1ccccc1)*; CO = O=C([*:1])[*:2]
Give only the number. pIC50 is defined as minus log10 of concentration in molar units.

[ask] I am curious: what pIC50 value has been reported for CC(C)C[C@H](NC(=O)OCc1ccccc1)C(=O)N[C@@H](Cc1ccc(OC(=O)N2CCOCC2)cc1)C(=O)O [Example 40] (Cbz-Leu-Tyr([CO-Morpholide])-OH) ?
[reply] 8.04

[ask] I am curious: what pIC50 value has been reported for "CC(C)C[C@H](NC(=O)COc1ccccc1C(=O)c1ccccc1)C(=O)N[C@@H](Cc1ccc(OC(=O)N2CCOCC2)cc1)C(=O)O" ?
[reply] 7.91

[ask] I am curious: what pIC50 value has been reported for "CC(C)C[C@H](NC(=O)COc1ccccc1C(=O)c1ccccc1)C(=O)N[C@@H](Cc1ccc(OC(=O)N2CCC(NC(=O)Cc3ccccc3)CC2)cc1)C(=O)O" ?
[reply] 7.88

[ask] I am curious: what pIC50 value has been reported for "CC(C)C[C@H](NC(=O)c1cccc2c1oc1ccccc12)C(=O)N[C@@H](Cc1ccc(OC(=O)N2CCOCC2)cc1)C(=O)O" ?
[reply] 8.08

[ask] I am curious: what pIC50 value has been reported for "CC(C)C[C@H](NC(=O)COc1ccc(C(=O)N2CCCCC2)cc1)C(=O)N[C@@H](Cc1ccc(OC(=O)N2CCOCC2)cc1)C(=O)O" ?
[reply] 7.78

[ask] I am curious: what pIC50 value has been reported for "CC(C)C[C@H](NC(=O)COc1ccccc1C(C)(C)C)C(=O)N[C@@H](Cc1ccc(OC(=O)N2CCN(C(=O)c3ccco3)CC2)cc1)C(=O)O" ?
[reply] 7.96

[ask] I am curious: what pIC50 value has been reported for "CC(C)C[C@H](NC(=O)COc1ccccc1C(C)(C)C)C(=O)N[C@@H](Cc1ccc(OC(=O)N2CCN(C(=O)c3ccccc3)CC2)cc1)C(=O)O" ?
[reply] 7.83

[ask] I am curious: what pIC50 value has been reported for "CC(C)C[C@H](NC(=O)COc1ccccc1C(C)(C)C)C(=O)N[C@@H](Cc1ccc(OC(=O)N2CCC(NC(=O)Cc3ccccc3)CC2)cc1)C(=O)O" ?
[reply] 7.86

[ask] I am curious: what pIC50 value has been reported for "CC(C)C[C@H](NC(=O)COc1ccccc1C(C)(C)C)C(=O)N[C@@H](Cc1ccc(OC(=O)N2CCOCC2)cc1)C(=O)O" ?
[reply] 8.22
